Reported Percent Effect is given for each of the following molecules.
Biological target: Proteasome subunit beta (Trypanosoma cruzi) (UniProt O96673)
Sequence (whole entry): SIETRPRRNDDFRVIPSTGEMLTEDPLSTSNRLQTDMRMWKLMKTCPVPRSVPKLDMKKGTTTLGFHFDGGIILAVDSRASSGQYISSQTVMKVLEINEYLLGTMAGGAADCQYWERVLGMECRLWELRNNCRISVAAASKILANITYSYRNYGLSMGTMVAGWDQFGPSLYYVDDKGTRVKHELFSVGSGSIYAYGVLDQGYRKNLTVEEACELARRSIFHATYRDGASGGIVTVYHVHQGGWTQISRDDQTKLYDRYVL
Test: Trypanosoma cruzi proteasome chymotrypsin-like activity (TcProtChymo) assay.
Assay type: functional
Design: scale not given: in the data most compounds retested in dose-response had high values
Conditions: 9.37 µM
Hi! Could you send only the number? It should be in %, unit omitted.

# molecule, Percent Effect (%)
measured = [
    ("O=C(NCc1ccc(OCC2CC2)nc1)c1c(F)cccc1F", 15.1),
    ("O=C([C@@H]1CC[C@@H]2[C@@H](CCN2Cc2ccoc2)O1)N1CCCC1", 17.9),
]

Data request: Look up Percent Effect: COc1ncccc1C(=O)N1CCC(c2nnc(C3CC3)o2)CC1
Data returned: 9.75

Data request: Query CCn1ccnc1CN1CCN(Cc2ccccn2)CC1C (configuration not stated) next
Data returned: 9.04

Data request: Query CC(C(=O)N1CCC(Nc2cccnn2)CC1)n1ccnc1 (configuration not stated) next
Data returned: 3.42

Data request: Query Cn1nnc2c1C(COCC1CC1)CN(C(=O)Cc1ccsc1)C2 (configuration not stated) next
Data returned: 9.57

Data request: Query Cc1cnn(CC2CN(CCc3ccncc3)CCO2)c1 (configuration not stated) next
Data returned: 4.08

Data request: Query CN(Cc1ncc(C(C)(C)C)o1)C1CCCN(c2cccnn2)C1 (configuration not stated) next
Data returned: 13.2

Data request: Query COc1cccc(CCC(=O)N2CCCCC2Cn2cccn2)c1 (configuration not stated) next
Data returned: 3.31

Data request: Query CCS(=O)(=O)Nc1ccn(Cc2cccc(Cl)c2)n1 next
Data returned: 9.48

Data request: Query CCCNC(=O)c1cc2c([nH]c1=O)CC(c1cccs1)CC2=O (configuration not stated) next
Data returned: 7.58

Data request: Query CC(Oc1ccccc1C(F)(F)F)C(=O)NCC(N)=O (configuration not stated) next
Data returned: 12.9
